Ref: PubChem BioAssay (NCI)

assay: NCI Yeast Anticancer Drug Screen. Data for the cln2 rad14 strain (AID 165);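 note: 0% = growth equal to vehicle treated cultures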; settings: S. cerevisiae cln2 rad14 strain, at 50.0 µM, active compounds read high
About 79,000 compounds went through this panel and 15% of them were active in at least one assay; those are over-represented in the sample as a whole.
Please enter yes (1) where growth inhibition is greater than or equal to -10%, and no (0) where it is lower.

## Task Exam item: decide whether the reported growth inhibition for N#CC1(C(N)=O)OC1c1ccccc1Cl (configuration not stated) is at least -10%.
## Result no (0)

## Task Exam item: decide whether the reported growth inhibition for CCCCCC1OCC(C)(C)CO1 is at least -10%.
## Result yes (1)

## Task Exam item: decide whether the reported growth inhibition for CC1(C)CC(=O)C(C(c2ccc3c(c2)CCC3)C2C(=O)CC(C)(C)CC2=O)C(=O)C1 is at least -10%.
## Result yes (1)

## Task Exam item: decide whether the reported growth inhibition for c1ccc2c(c1)C1C3c4ccccc4C1C1C2C31 is at least -10%.
## Result yes (1)

## Task Exam item: decide whether the reported growth inhibition for CO/N=C1/c2sccc2[C@H](NC(=O)C(Cc2ccccc2)NC(=O)OC(C)(C)C)[C@@H]1O (some centres not stated) is at least -10%.
## Result no (0)

## Task Exam item: decide whether the reported growth inhibition for O=C(O)c1ccc(S(=O)(=O)c2cccc(Cl)c2)cc1 is at least -10%.
## Result no (0)

----------
Overview of reported growth inhibition across a group of molecules:
experiment: NCI Yeast Anticancer Drug Screen. Data for the mec2-1 strain (AID 157); details: S. cerevisiae mec2-1 strain, at 50.0 µM, active compounds read high
About 79,000 compounds went through this panel and 15% of them were active in at least one assay; those are over-represented in the sample as a whole.
Please state the figure in %; there is no need to write the unit.

The cases that follow already have their growth inhibition on record.
Molecule: CCCCCC(Nc1nncs1)Nc1nncs1
growth inhibition (%): -20.5
--
Molecule: CCOC(=O)c1c(C)c2c(n1C)CCC(C#N)C2=O (centres undefined)
growth inhibition (%): 10.4
--
Molecule: COc1ccc(C2=NC(=O)OC2(C)C)cc1
growth inhibition (%): -20.2
--
Molecule: Cc1c(N)cc2c(c1[N+](=O)[O-])C(C)(C)CC2(C)C
growth inhibition (%): -14.1
--
Molecule: COc1ccc(C(=N)c2ccccc2C)cc1
growth inhibition (%): -8.65

Attention now shifts to the item below.
## Task Any idea what growth inhibition was measured for Nc1ccc(-c2csc(Nc3ccnc4cc(Cl)ccc34)n2)cc1 ?
## Result -5.4

----------
test: NCI Yeast Anticancer Drug Screen. Data for the mlh1 rad18 strain (AID 175); details: S. cerevisiae mlh1 rad18 strain growth inhibition; at 50.0 µM
Compounds without any hit were thinned out: in the full panel of roughly 79,000, 15% have a hit. Active and inactive are the calls of the source. Cut-off read from the data, not from the text of the source: active = growth inhibition above about 70%; inactive = the rest.
Respond only with the outcome that fits, drawn from active, inactive

Compound: COC(=O)NCc1nc2cc3c[nH][nH]c3cc2n1
Label Class: inactive

Compound: CC(=O)Nc1ccc(C(=O)NN2C(=O)CSC2c2ccc([N+](=O)[O-])cc2)cc1 (centres undefined)
Label Class: inactive

Compound: Cc1c2cnccc2c(CO)c2[nH]c3ccccc3c12
Label Class: inactive

Compound: CCCCCCCCCC(C(=O)OCC)(C(=O)OCC)C1CCCC1
Label Class: inactive

Compound: CCCCN=C=NCCC[N+](C)(C)C
Label Class: inactive

## Task I would be grateful if you could indicate the recorded call for NC(=O)C(=CNc1nc(-c2ccc(Cl)c(Cl)c2)cs1)C(N)=O .
## Result inactive

## Task I would be grateful if you could indicate the recorded call for O=C1c2ccccc2C(=O)C1(Cl)C(Cl)c1ccc([N+](=O)[O-])cc1 (centres undefined) .
## Result active

## Task I would be grateful if you could indicate the recorded call for O=C(O)c1cccc2c1CCCC2 .
## Result inactive

## Task I would be grateful if you could indicate the recorded call for C/C=C/C1OCC(C)([N+](=O)[O-])CO1 (centres undefined) .
## Result inactive

## Task I would be grateful if you could indicate the recorded call for CN(C)c1ccc([N+](=O)[O-])c2c1CCC2 .
## Result inactive

## Task I would be grateful if you could indicate the recorded call for O=C(Nc1nncs1)c1ccncc1 .
## Result inactive

## Task I would be grateful if you could indicate the recorded call for O=C1Nc2cccc3cc(NCC(O)CCCl)cc1c23 (centres undefined) .
## Result inactive

## Task I would be grateful if you could indicate the recorded call for O=C(Cc1ccccc1)NCc1ccccc1 .
## Result inactive

## Task I would be grateful if you could indicate the recorded call for Cc1cc(Cc2cc(C)c(NC(=O)C(=O)C3CCC4=C(SC5C=CC=CC5N4)C3=O)c(C(C)C)c2)cc(C(C)C)c1NC(=O)C(=O)C1CCC2=C(SC3C=CC=CC3N2)C1=O (centres undefined) .
## Result inactive

## Task I would be grateful if you could indicate the recorded call for O=C(OC(=O)c1cccnc1)c1cccnc1 .
## Result inactive

## Task I would be grateful if you could indicate the recorded call for CCc1c(O)cc(=O)oc1-c1ccc(OC)c(OC)c1 .
## Result inactive

## Task I would be grateful if you could indicate the recorded call for O=C1CC(c2ccccc2)S(=O)c2ccccc2N1 (centres undefined) .
## Result inactive

## Task I would be grateful if you could indicate the recorded call for CCCCCCCCCO/N=C\c1c2c(O)c3c(O)c(C)c4c(c3c1O)C(=O)C(C)(O/C=C\C(OC)C(C)C(OC(C)=O)C(C)C(O)C(C)C(O)C(C)/C=C\C=C(\C)C(=O)N2)O4 (centres undefined) .
## Result inactive

## Task I would be grateful if you could indicate the recorded call for Cc1cc2c(cc1C)N1C(Cl)=C3CCCCC3=C(C#N)C1N2 (centres undefined) .
## Result inactive

## Task I would be grateful if you could indicate the recorded call for Cc1cc2c(cc1Cl)SC(N/N=C(\N)c1ccc(Cl)cc1)=NS2(=O)=O .
## Result inactive

## Task I would be grateful if you could indicate the recorded call for CC(=O)O[C@@H]1C[C@]2(C)[C@@H](C(C)=O)CC[C@H]2[C@@H]2CCC3=CC(=O)CC[C@]3(C)[C@H]21 .
## Result inactive

## Task I would be grateful if you could indicate the recorded call for Oc1ccc(Br)cc1C(c1ccc2c(c1)OCO2)N1CCOCC1 (centres undefined) .
## Result inactive

## Task I would be grateful if you could indicate the recorded call for CN(C)Cc1[nH]c(=O)[nH]c(=O)c1O .
## Result inactive

## Task I would be grateful if you could indicate the recorded call for O=[N+]([O-])c1ccc2c(c1)Sc1ccccc1N2 .
## Result inactive

## Task I would be grateful if you could indicate the recorded call for O=C(NCCc1c(-c2ccccc2)[nH]c2ccccc12)C1CCCCC1 .
## Result inactive

----------
experiment: NCI Yeast Anticancer Drug Screen. Data for the mlh1 rad18 strain (AID 175); details: S. cerevisiae mlh1 rad18 strain growth inhibition; at 50.0 µM; active compounds read high
About 79,000 compounds went through this panel and 15% of them were active in at least one assay; those are over-represented in the sample as a whole.
Readout: growth inhibition (%)
Please state the figure in %; there is no need to write the unit.

Compound: Cc1ccc(S(=O)(=O)N/N=C/C(O)C(O)C(O)C(O)CO)cc1 (configuration not stated)
Units Symbol: %
growth inhibition: 12.3

Compound: CC(=O)NC1CON(C(C)=O)C1=O (configuration not stated)
Units Symbol: %
growth inhibition: -6.75

Compound: O=C(O)CC(O)C(F)(F)F (configuration not stated)
Units Symbol: %
growth inhibition: 26.5

Compound: O=C(C[n+]1cccc(Cl)c1)c1ccccc1
Units Symbol: %
growth inhibition: -0.5

Compound: C=C(CO)CC(CC(=C)CCS(=O)(=O)c1ccccc1)S(=O)(=O)c1ccccc1 (configuration not stated)
Units Symbol: %
growth inhibition: -5.75

Compound: NC(CCC(=O)NC(CSSCCCCS(=O)O)C(=O)NCC(=O)O)C(=O)O (configuration not stated)
Units Symbol: %
growth inhibition: 1.4

Compound: Oc1cccc(CCc2ccccn2)c1
Units Symbol: %
growth inhibition: -4.05

Compound: CC(=O)Oc1ccc(O)c(C(=O)O)c1
Units Symbol: %
growth inhibition: 17.3

Compound: O=C1C2Nc3ccccc3N=C2OC1c1ccc(Cl)c(Cl)c1 (configuration not stated)
Units Symbol: %
growth inhibition: 24.6

Compound: C/C=C/C(=O)NN
Units Symbol: %
growth inhibition: 25.8

## Task Any idea what growth inhibition was measured for COc1ccc2c3c([nH]c2c1)[C@H]1C[C@H]2[C@H](C[C@@H](O)[C@H](OC)[C@H]2C(=O)O)CN1CC3 ?
## Result 30.4

## Task Any idea what growth inhibition was measured for C/C(=N\NC(N)=O)c1sc(-c2nc(C)c(/C(C)=N/NC(N)=O)s2)nc1C ?
## Result 27.5
